# assay procedure: Clearance in human liver microsomes
# Type: ADME
Assign class by CLhep predicted: not lower than 4 mL/min/kg means y; lower than 4 mL/min/kg means n.

Check out these entries, answers already filled in.
Cc1c(F)cccc1[C@H]1COC(N)=N1 ... y
NC1=N[C@@H](c2ccc(Cl)c(Cl)c2)CO1 ... n
CC[C@@H](C[C@H]1COC(N)=N1)c1ccccc1 ... n

[Q] Kindly determine if CLhep predicted recorded for NC1=N[C@@H](c2ccc(Cl)cc2C2CC2)CO1 is above or exactly 4 mL/min/kg.
[A] y

[Q] Kindly determine if CLhep predicted recorded for Cc1cc(Cl)ccc1[C@H]1COC(N)=N1 is above or exactly 4 mL/min/kg.
[A] n
